System: NCI-H522 lung
Experimental Details: NCI-60 one-dose screen, 48 h (100 = growth as untreated, 0 = no growth, -100 = all killed)
Setup Conditions: 10 µM unless noted
Protocol: Growth inhibition of the NCI-H522 human Non-Small Cell Lung tumor cell line is measured as a screen for anti-cancer activity. Cells are grown in 96 well plates and exposed to the test compound for 48 hours. Compounds are tested at a single concentration, which is 10^-5 M for most compounds. The reported endpoint is percent growth (GI% or GIPRCNT), where numbers from 0 - 100% represent growth inhibition, and numbers from -100% - 0 represent cell death. […]
This is part of a sample that, as a whole, favours compounds with a hit. Of some 83,000 tested, about 20% had one in any assay.
Assay Metric: growth (%)
One number for each entry, in %.

Here is how some compounds turned out for growth.
| Compound | Units | growth |
| --- | --- | --- |
| Cc1cc(N2CCCCC2)cc(C)c1-c1csc(NC(=O)c2ccncc2)n1 | % | 44.1 |
| O=C(/C=C/c1ccccc1)Nc1ncc(Cc2ccccc2Cl)s1 | % | -11.2 |
| N=C(N)c1ccc(-c2ccc(-c3ccccc3)o2)cc1 | % | -82.6 |

Could you report growth for every entry in the following list?
1. CCO/C=N/C1=C(C#N)C(c2ccc(Cl)cc2)c2sc3c(F)cccc3c2O1 (stereo unspecified)
2. COc1ccc(C2=C(Br)C(=O)c3nc(C)ccc3C2=O)cc1
3. COc1ccc(/C=N/NC(=O)c2ccc(-n3cc(-c4ccccc4)nn3)cc2)cc1OC

*A*
1: -6.96; 2: 24; 3: 99.6

---

Please provide measured growth for the entries that follow.
System: NCI-H322M lung
Experimental Details: NCI-60 one-dose screen, 48 h (100 = growth as untreated, 0 = no growth, -100 = all killed)
Setup Conditions: 10 µM unless noted
Compounds without any hit were thinned out: in the full panel of roughly 83,000, 20% have a hit. Activity calls are given as the source filed them. How the source made its calls: active means growth percent below 10; inactive means the rest.

Here is how some molecules turned out for growth.
| Smiles Text | Target Desc | growth |
| --- | --- | --- |
| CC(C)c1ccc(C(=O)Nc2nc3ccc(O)c(CN(C)C)c3s2)cc1 | NCI-H322M lung | 81.9% (inactive) |
| CC1(C)COB(OCC(C)(C)COB2OCC(C)(C)CO2)OC1 | NCI-H322M lung | 92.2% (inactive) |
| O=C(Nc1ccc(OS(=O)(=O)c2ccc(F)cc2)cc1)C1CCCCCC1 | NCI-H322M lung | 106% (inactive) |

Could you report growth for every entry in the following list?
1. COc1c(B(O)O)cccc1-c1cc(C)c2c(ccc3[nH]ncc32)n1
2. CC(=O)O[C@@H]1C[C@]2(C(C)C)O[C@@]1(C)[C@@H]1CCC(C)=C1[C@@H]2OC(=O)/C=C/c1ccccc1

*A*
74.3% (inactive)
93.4% (inactive)

---

System: HOP-92 NSCLC
Experimental Details: NCI-60 one-dose screen, 48 h
Setup Conditions: 10 µM unless noted
This is part of a sample that, as a whole, favours compounds with a hit. Of some 83,000 tested, about 20% had one in any assay. Active and inactive are the calls of the source. Rule for the calls: active = growth percent below 10; inactive = the rest.
Can you answer with just one of these options? true (1) (active), false (0) (inactive)

Worked examples follow.
| Compound | Group |
| --- | --- |
| COc1ccc(C(=O)/C=C/c2c(C(F)(F)F)nc3ccccn23)cc1OC | true (1) |
| Cc1nc2sc(C(=O)Nc3cccc(Br)c3)c(N)c2cc1C(O)c1ccccc1 (stereo unspecified) | false (0) |
| CC(=O)n1nc(C(=O)OC(C)(C)c2ccccc2)c2ccccc21 | false (0) |
| Ic1ccc(OCCCCn2ccnc2)cc1 | false (0) |
| CCOc1nc(-c2ccccc2)cc2c(O)c(C(=O)N/N=C/c3ccccc3)[nH]c(=O)c12 | false (0) |

Please turn your attention to the following entry.
*Q* Per the assay record, what outcome was assigned to CN(/C(N)=N/N=C/c1c2ccccc2cc2ccccc12)C1CCCCC1 ?
*A* true (1)
